# SYSTEM UNDER TEST: BTK-1h (Homo sapiens)
# Construct: The BTK kinase domain was diluted to 2 μM in the buffer, and 2 μM 1h was added; made in house
# Sequence (Q06187 402-655): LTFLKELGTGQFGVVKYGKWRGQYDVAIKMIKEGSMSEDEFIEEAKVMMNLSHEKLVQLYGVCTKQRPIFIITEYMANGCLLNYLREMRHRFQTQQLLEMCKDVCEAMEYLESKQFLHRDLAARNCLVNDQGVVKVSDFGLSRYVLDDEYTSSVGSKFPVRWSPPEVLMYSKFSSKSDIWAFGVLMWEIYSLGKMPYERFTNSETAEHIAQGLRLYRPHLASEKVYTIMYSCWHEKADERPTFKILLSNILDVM
# EXPERIMENT: High-throughput screening with 1h-labeled BTK
# Format: binding
# CONDITION CONTEXT: Dataset S2A; 200 μM compound, BTK-1h, 32 °C, 10 min
Provide the reported FI (650)/FI (620) of each item.
Enter the number alone.

Exercise: Recall the recorded FI (650)/FI (620) for Cc1nc(Nc2ccc(F)cc2)nc(N2CCc3ccccc3C2C)c1C.Cl (stereo not drawn) [PCM-0216015-001] with BTK-1h (Homo sapiens) and state it.
Key: 1.147

Exercise: Could you share what FI (650)/FI (620) was measured for COc1ccc2cc3[n+](cc2c1O)CCc1cc2c(cc1-3)OCO2.[Cl-] [PCM-0216489-001] , tested on BTK-1h (Homo sapiens)?
Key: 1.203

Exercise: # returns recorded FI (650)/FI (620) (system: BTK-1h (Homo sapiens)) for C=CC(=O)N1CC[C@@H](Oc2nc(Nc3ccc(N4CCC(N5CCN(C)CC5)CC4)cc3)c(C(N)=O)nc2CC)C1 [PCM-0215788-001]
Key: 1.046

Exercise: Return FI (650)/FI (620) measured with BTK-1h (Homo sapiens) given this compound: O=C(O)CSc1cc(NS(=O)(=O)c2ccc(Br)cc2)c2ccccc2c1O [PCM-0215378-001]
Key: 1.912

Exercise: Which FI (650)/FI (620) is reported with BTK-1h (Homo sapiens) for this entry: C=CC(=O)Nc1ccc(CN2C(=O)N(c3cc(OC)cc(OC)c3)Cc3cnc(Nc4ccc(N5CCN(C)CC5)cc4)nc32)cc1 [PCM-0215559-001] ?
Key: 1.072

Exercise: # value lookup — system BTK-1h (Homo sapiens), readout FI (650)/FI (620), item Cc1[nH]c(/C=C2\C(=O)Nc3ccccc32)c(C)c1CCC(=O)O [PCM-0095149-002]
Key: 0.9795

Exercise: BTK-1h (Homo sapiens) / FI (650)/FI (620) / C1=C/COCc2cc(ccc2OCCN2CCCC2)Nc2nccc(n2)-c2cccc(c2)COC/1 [PCM-0215268-001] : value?
Key: 1.364

Exercise: Any idea what FI (650)/FI (620) came out for C=CC(=O)Nc1cc(Nc2nccc(-c3c[nH]c4ccccc34)n2)c(OC)cc1N(C)CCN(C)C [PCM-0215489-001] on BTK-1h (Homo sapiens)?
Key: 1.101

Exercise: GET /values?readout=FI (650)/FI (620)&system=BTK-1h (Homo sapiens)&item= Cl.O=C1Cc2cc(CCN3CCN(c4nsc5ccccc45)CC3)c(Cl)cc2N1 [PCM-0065598-003]
Key: 1.0625

====

# SYSTEM UNDER TEST: BTK-1h (Homo sapiens)
# Construct: The BTK kinase domain was diluted to 2 μM in the buffer, and 2 μM 1h was added; made in house
# EXPERIMENT: High-throughput screening with 1h-labeled BTK
# Type: binding
# CONDITION CONTEXT: Dataset S2A; 200 μM compound, BTK-1h, 32 °C, 10 min
PROPERTY NAME: FI (BTK-1h)/FI (BTK-1h+Inhibitor) at 620 nm
Please reply with the number alone, leaving off any unit.

Exercise: Lab note: need FI (BTK-1h)/FI (BTK-1h+Inhibitor) at 620 nm with BTK-1h (Homo sapiens) for entry CC1(C)C=Cc2c(ccc3c2OC[C@@H](c2ccc(O)cc2O)C3)O1 [PCM-0214974-001] , please look it up.
Key: 1.0065

Exercise: // lookup FI (BTK-1h)/FI (BTK-1h+Inhibitor) at 620 nm | system=BTK-1h (Homo sapiens) | key= CC#CC(=O)Nc1ccc2ncnc(Nc3cccc(Br)c3)c2c1 [PCM-0215449-001]
Key: 1.056

Exercise: Hello, I am looking for reported FI (BTK-1h)/FI (BTK-1h+Inhibitor) at 620 nm with BTK-1h (Homo sapiens) for CC(C)(C)c1cc(NC(=O)Nc2ccc(Oc3ccnc4[nH]c(=O)cnc34)cc2F)n(-c2ccccc2)n1 [PCM-0215780-001] . Could you help?
Key: 1.039

Exercise: Enter reported FI (BTK-1h)/FI (BTK-1h+Inhibitor) at 620 nm observed with BTK-1h (Homo sapiens) for O=S(=O)([O-])c1ccc2cc(N=Nc3cc(S(=O)(=O)[O-])c4cccnc4c3O)ccc2c1.[Na+].[Na+] [PCM-0215685-001]
Key: 1.027

Exercise: Lab note: need FI (BTK-1h)/FI (BTK-1h+Inhibitor) at 620 nm with BTK-1h (Homo sapiens) for entry CCS(=O)(=O)N1CCN(c2ccc(Nc3ncc(C(N)=O)c(NC4CC4)n3)cc2)CC1.Cl [PCM-0215389-001] , please look it up.
Key: 1.12

Exercise: Recall the recorded FI (BTK-1h)/FI (BTK-1h+Inhibitor) at 620 nm for CN1CCN(c2ccc(C(=O)Nc3n[nH]c4ccc(Cc5cc(F)cc(F)c5)cc34)c(NC3CCOCC3)c2)CC1 [PCM-0215551-001] with BTK-1h (Homo sapiens) and state it.
Key: 1.038

Exercise: Request - read-out FI (BTK-1h)/FI (BTK-1h+Inhibitor) at 620 nm | tested on BTK-1h (Homo sapiens) | compound O=C(c1ccccc1O)c1[nH]c(Cl)c(Cl)c1-n1c(C(=O)c2ccccc2O)cc(Cl)c1Cl [PCM-0215850-001]
Key: 1.016

Just for reference, paper PMC8662641 is where these values come from.
